- assayed.target: Dipeptidyl peptidase 4 (Sus scrofa)
- Sequence (P22411 whole entry): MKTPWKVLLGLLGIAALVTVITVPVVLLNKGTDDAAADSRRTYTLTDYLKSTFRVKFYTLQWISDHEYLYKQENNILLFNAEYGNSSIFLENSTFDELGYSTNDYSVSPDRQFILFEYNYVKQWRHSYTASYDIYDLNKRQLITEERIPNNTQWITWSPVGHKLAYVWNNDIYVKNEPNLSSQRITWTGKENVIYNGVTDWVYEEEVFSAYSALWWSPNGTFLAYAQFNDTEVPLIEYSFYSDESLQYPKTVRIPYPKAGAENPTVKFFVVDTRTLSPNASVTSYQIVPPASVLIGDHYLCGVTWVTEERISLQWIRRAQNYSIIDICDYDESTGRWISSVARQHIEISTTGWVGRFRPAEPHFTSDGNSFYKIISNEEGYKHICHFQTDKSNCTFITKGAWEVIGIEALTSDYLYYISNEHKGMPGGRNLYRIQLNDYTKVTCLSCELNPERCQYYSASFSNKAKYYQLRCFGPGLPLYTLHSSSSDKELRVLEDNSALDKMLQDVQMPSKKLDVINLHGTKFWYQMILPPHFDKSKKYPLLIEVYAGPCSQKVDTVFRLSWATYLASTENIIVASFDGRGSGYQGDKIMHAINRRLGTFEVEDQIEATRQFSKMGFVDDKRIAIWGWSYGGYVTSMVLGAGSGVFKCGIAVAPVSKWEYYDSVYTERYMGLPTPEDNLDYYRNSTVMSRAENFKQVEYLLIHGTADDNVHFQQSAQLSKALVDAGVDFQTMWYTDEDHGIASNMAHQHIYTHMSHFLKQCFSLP
- assay.method.text: Inhibition of porcine DPP4
recorded.metric: IC50 (µM)

Recorded results for 3 molecules are shown here.
Task: IC50 lookup needed for CC(C)=CCn1c(OC2CCNCC2)nc2c1c(=O)n(CC(=O)c1ccccc1)c(=O)n2C , thanks.
Output: 1.1

Task: Now the same for CC(C)=CCn1c(OC[C@@H]2CCCN2)nc2c1c(=O)n(CC(=O)c1ccccc1)c(=O)n2C
Output: 0.017

Task: Now the same for CC(C)=CCn1c(OCC(C)(C)CN)nc2c1c(=O)n(CC(=O)c1ccccc1)c(=O)n2C
Output: 0.009

a: CC(C)=CCn1c(N2CCC3CNCC32)nc2c1c(=O)n(C)c(=O)n2C (stereo unspecified)
b: CC(C)=CCn1c(OC[C@H]2CCCN2)nc2c1c(=O)n(CC(=O)c1ccccc1)c(=O)n2C
Task: Please let me know which one, a or b , has a lower measured IC50 value. # respond with the chosen item's label
Output: a

###

- assayed.target: Dipeptidyl peptidase 4 (Sus scrofa)
- assay.method.text: Inhibition of porcine DPP4 assessed as residual enzyme activity using H-Gly-Pro-AMC as substrate by fluorescence assay
recorded.metric: Activity (nM)

I: CC(C)=CCn1c(OCCCN)nc2c1c(=O)n(CC(=O)c1ccccc1)c(=O)n2C
II: CC(C)=CCn1c(OCC(C)(C)CN)nc2c1c(=O)n(C)c(=O)n2C
III: CC(C)=CCn1c(N2CCC[C@H](N)C2)nc2c1c(=O)n(C)c(=O)n2C
Task: Arrange these 3 compounds in increasing order of Activity. Reply with the item labels sorted in the order that was asked for.
Output: III, I, II

###

- assayed.target: Dipeptidyl peptidase 4 (Sus scrofa)
- assay.method.text: Inhibition of porcine DPP4 assessed as residual enzyme activity using H-Gly-Pro-AMC as substrate by fluorescence assay
recorded.metric: Activity (nM)

Recorded results for 6 molecules are shown here.
Task: Recall the recorded Activity for CC(C)=CCn1c(N2CC3CCNC3C2)nc2c1c(=O)n(C)c(=O)n2C (centres undefined) with Dipeptidyl peptidase 4 (Sus scrofa) and state it.
Output: 6000

Task: Now the same for CC(C)=CCn1c(N2CCC[C@@H](N)C2)nc2c1c(=O)n(C)c(=O)n2C
Output: 11

Task: Now the same for CC(C)=CCn1c(OC[C@H](C)N)nc2c1c(=O)n(C)c(=O)n2C
Output: 780

Task: Now the same for CC(C)=CCn1c(OC[C@@H](N)Cc2ccccc2)nc2c1c(=O)n(C)c(=O)n2C
Output: 430

Task: Now the same for CC(C)=CCn1c(O[C@@H](C)CN)nc2c1c(=O)n(CC(=O)c1ccccc1)c(=O)n2C
Output: 420

Task: Now the same for CC(C)=CCn1c(OC2CCNCC2)nc2c1c(=O)n(CC(=O)c1ccccc1)c(=O)n2C
Output: 275

a: CC(C)=CCn1c(OC[C@H]2CCCN2)nc2c1c(=O)n(CC(=O)c1ccccc1)c(=O)n2C
b: CC(C)=CCn1c(N2CC3CCCNC3C2)nc2c1c(=O)n(CC(=O)c1ccccc1)c(=O)n2C (centres undefined)
Task: Between the two listed entries a and b , which has its Activity at the higher number? # respond with the chosen item's label
Output: a
(a: 580 nM, b: 269 nM)

1: CC(C)=CCn1c(N2CCC3CNCC32)nc2c1c(=O)n(C)c(=O)n2C (centres undefined)
2: CC(C)=CCn1c(OC[C@@H]2CCCN2)nc2c1c(=O)n(C)c(=O)n2C
Task: Between the two listed entries 1 and 2 , which has its Activity at the higher number? # respond with the chosen item's label
Output: 2
(2: 1600 nM, 1: 132 nM)

1: CC(C)=CCn1c(N2CCNCC2)nc2c1c(=O)n(CC(=O)c1ccccc1)c(=O)n2C
2: CC(C)=CCn1c(OCC(C)(C)CN)nc2c1c(=O)n(CC(=O)c1ccccc1)c(=O)n2C
3: CC(C)=CCn1c(N2CCC[C@H](N)C2)nc2c1c(=O)n(CC(=O)c1ccccc1)c(=O)n2C
4: CC(C)=CCn1c(N2CCC[C@@H](N)C2)nc2c1c(=O)n(CC(=O)c1ccccc1)c(=O)n2C
Task: Arrange these molecules by their Activity, starting with the largest number. Reply with the item labels sorted in the order that was asked for.
Output: 1, 2, 3, 4
(1: 11 nM, 2: 6 nM, 3: 4 nM, 4: 0.7 nM)

P: CC(C)=CCn1c(N2CCNCC2)nc2c1c(=O)n(C)c(=O)n2C
Q: CC(C)=CCn1c(OC[C@@H]2CCCN2)nc2c1c(=O)n(CC(=O)c1ccccc1)c(=O)n2C
Task: Please let me know which one, P or Q , has a lower measured Activity value. # respond with the chosen item's label
Output: Q

###

- assayed.target: UniProt:P22411
- assay.method.text: Inhibition of porcine DPP4 using H-Gly-Pro-AMC as substrate by fluorescence assay
pIC50: −log10 of the molar value.
recorded.metric: pIC50

Task: pIC50 lookup needed for CC(C)=CCn1c(OC[C@@H]2CCCN2)nc2c1c(=O)n(CC(=O)c1ccccc1)c(=O)n2C , thanks.
Output: 7.80

a: CC(C)=CCn1c(OCC(C)(C)CN)nc2c1c(=O)n(CC(=O)c1ccccc1)c(=O)n2C
b: CC(C)=CCn1c(N2CCC[C@@H](N)C2)nc2c1c(=O)n(CC(=O)c1ccccc1)c(=O)n2C
Task: Between the two listed entries a and b , which has its pIC50 at the higher number? # respond with the chosen item's label
Output: b
(b: 9.14, a: 8.19)

1: CC(C)=CCn1c(OC[C@H]2CCCN2)nc2c1c(=O)n(CC(=O)c1ccccc1)c(=O)n2C
2: CC(C)=CCn1c(N2CCC3CNCC32)nc2c1c(=O)n(C)c(=O)n2C (stereo unspecified)
Task: Between the two listed entries 1 and 2 , which has its pIC50 at the higher number? # respond with the chosen item's label
Output: 2

###

Below is a list of entries, each paired with its recorded Activity value.
- assayed.target: Dipeptidyl peptidase 4 (Sus scrofa)
- assay.method.text: Inhibition of porcine DPP4 assessed as residual enzyme activity using H-Gly-Pro-AMC as substrate by fluorescence assay

Recorded results for 2 molecules are shown here.
Task: Activity lookup needed for CC(C)=CCn1c(N2CC3CCCNC3C2)nc2c1c(=O)n(C)c(=O)n2C (stereo not drawn) , thanks.
Output: > 24.5 µM

Task: Now the same for CC(C)=CCn1c(OC[C@H]2CCCN2)nc2c1c(=O)n(C)c(=O)n2C
Output: > 7 µM

Proceed to the following item.
Task: Activity lookup needed for CC(C)=CCn1c(O[C@@H]2CCNC2)nc2c1c(=O)n(C)c(=O)n2C , thanks.
Output: > 7 µM
